# Tested on: HCT-8 host cells (Hs18S)
# measurement.conditions: human, 41 h, 10 μM
Where a name gives a salt, the structure may show the parent alone.
measured.metric: Hs18S ΔCT
# answer = number (no unit)

Example entries begin here.
>  <molecule>
OC[C@@H]1CCCN2CCCC[C@H]12

>  <Hs18S ΔCT>
0.18

$$$$
>  <molecule>
C#CCCCCCCCCCCCC(O)CC(O)COC(C)=O (stereo not drawn) [AVOCADYNE ACETATE]

>  <Hs18S ΔCT>
0.19

$$$$
>  <molecule>
COc1cc(C(C)=O)cc(OC)c1O

>  <Hs18S ΔCT>
-0.06

$$$$
>  <molecule>
C[C@@]12C[C@@]3(O)O[C@@H](O1)[C@]1(COC(=O)c4ccccc4)[C@H]3C[C@@]12O[C@@H]1O[C@H](CO)[C@@H](O)[C@H](O)[C@H]1O

>  <Hs18S ΔCT>
-0.11

$$$$
>  <molecule>
CCCCCC1C(=O)CCC1CC(=O)OC (stereo not drawn) [DIHYDROJASMONIC ACID, METHYL ESTER]

>  <Hs18S ΔCT>
-0.06

$$$$
>  <molecule>
CCOC(=O)c1c(C)cc(O)cc1O

>  <Hs18S ΔCT>
-0.12

$$$$
>  <molecule>
CC(C)[C@@H]1CC[C@@H](C)CC1=O

>  <Hs18S ΔCT>
-0.20

$$$$
>  <molecule>
CC[C@]1(O)C[C@@H]2CN(CCc3c([nH]c4ccccc34)[C@@](C(=O)OC)(c3cc4c(cc3OC)N(C)[C@H]3[C@@](O)(C(=O)OC)[C@H](OC(C)=O)[C@]5(CC)C=CCN6CC[C@]43[C@@H]65)C2)C1 [VINBLASTINE SULFATE]

>  <Hs18S ΔCT>
0.81

$$$$

input: Dear colleague, I am looking for the recorded Hs18S ΔCT of the following molecule: O=C(O)CCC1NCC2CC1CN1CCCCC21 (stereo not drawn) [LUPANYL ACID HYDROCHLORIDE]
output: 0.09

The reported numbers originate from paper PMC6736568.
